tested on: 15 different HLA-DR molecules; assay: HLA-DR binding assays, panel of 15 different HLA-DR molecules (breadth of binding); conditions: number of the 15 HLA-DR molecules bound (binders: 1000 nM or better)
Recorded measurements of Total XRN, one per entry

Some compounds with recorded Total XRN:
compound	system.name	assay.result
CC(C)C[C@H](NC(=O)[C@H](CO)NC(=O)[C@H](C)NC(=O)[C@H](CC(N)=O)NC(=O)[C@@H](NC(=O)[C@@H]1CCCN1C(=O)[C@H](CC(C)C)NC(=O)[C@H](Cc1ccc(O)cc1)NC(=O)[C@@H](NC(=O)[C@H](CC(C)C)NC(=O)[C@H](CCC(=O)O)NC(=O)[C@H](CC(C)C)NC(=O)[C@@H](N)CC(N)=O)[C@@H](C)O)[C@@H](C)O)C(=O)N[C@@H](CO)C(=O)N[C@@H](Cc1ccccc1)C(=O)O [Peptide 9019.0030]	15 different HLA-DR molecules	12
CC(C)C[C@H](NC(=O)[C@H](CC(C)C)NC(=O)[C@H](CC(C)C)NC(=O)[C@H](CC(C)C)NC(=O)[C@H](CC(C)C)NC(=O)[C@H](CC(C)C)NC(=O)[C@@H]1CCCN1)C(=O)NCC(=O)N[C@@H](C)C(=O)N[C@@H](CO)C(=O)NCC(=O)NCC(=O)NCC(=O)NCC(=O)NCC(=O)O [Peptide 9019.0177]	15 different HLA-DR molecules	4

Continue with the compound presented below.
### Prompt # Total XRN lookup, item CC[C@H](C)[C@H](N)C(=O)N[C@@H](CCCCN)C(=O)N[C@@H](Cc1c[nH]c2ccccc12)C(=O)N[C@@H](CCSC)C(=O)N[C@@H](C)C(=O)N[C@@H](CC(C)C)C(=O)N[C@@H](CCC(=O)O)C(=O)N[C@@H](CO)C(=O)N[C@H](C(=O)N[C@@H](CC(C)C)C(=O)N[C@@H](CCCNC(=N)N)C(=O)N[C@@H](CCCNC(=N)N)C(=O)N[C@@H](CCCNC(=N)N)C(=O)N[C@@H](Cc1ccccc1)C(=O)N[C@H](C(=O)O)[C@@H](C)O)[C@@H](C)CC [Peptide 9019.0003]
### Response 10

---

molecular target: purified HLA DRB5*0101 (Homo sapiens, UniProt P01903+Q30154); construct: purified from EBV transformed homozygous cell lines or single MHC allele transfected 721.221, C1R, or fibroblast lines; made in house; assay: HLA-DR radioligand binding inhibition assay, DRB5*0101; conditions: IC50 nM purified HLA DRB5 *0101, purified HLA DRB5*0101
IC50 by entry:
Number first, unit second.

molecule	assay.result
CC[C@H](C)[C@H](NC(=O)[C@@H](NC(=O)[C@H](CCC(=O)O)NC(=O)[C@H](CCCCN)NC(=O)[C@H](CCSC)NC(=O)[C@H](CCCCN)NC(=O)[C@H](CO)NC(=O)[C@H](C)NC(=O)[C@@H](NC(=O)[C@H](Cc1ccccc1)NC(=O)[C@H](CCSC)NC(=O)[C@H](CS)NC(=O)[C@@H](N)[C@@H](C)O)C(C)C)[C@@H](C)O)C(=O)N1CCC[C@H]1C(=O)N[C@@H](CC(C)C)C(=O)O [Peptide 9019.0157]	36 nM

Now for the molecule whose IC50 we want.
### Prompt May I ask what IC50 has been recorded for CSCC[C@H](NC(=O)[C@H](CC(C)C)NC(=O)[C@H](CCC(N)=O)NC(=O)[C@@H](NC(=O)[C@@H](NC(=O)[C@H](CC(C)C)NC(=O)[C@H](CCC(N)=O)NC(=O)[C@@H](NC(=O)[C@@H](N)[C@@H](C)O)C(C)C)C(C)C)[C@@H](C)O)C(=O)N1CCC[C@H]1C(=O)N[C@@H](Cc1ccc(O)cc1)C(=O)NCC(=O)N[C@@H](CS)C(=O)N[C@@H](CC(C)C)C(=O)N[C@@H](CC(C)C)C(=O)O [Peptide 9019.0080] ?
### Response 3000 nM
